Molecular target: Recombinant Cx43CT (carboxyl terminal domain of connexin43, sequence 255-382 of rCx43 preceded by GPLG) (rat, UniProt P08050)
Sequence (P08050 other isoform, or with tags, fused parts or gaps limits assumed): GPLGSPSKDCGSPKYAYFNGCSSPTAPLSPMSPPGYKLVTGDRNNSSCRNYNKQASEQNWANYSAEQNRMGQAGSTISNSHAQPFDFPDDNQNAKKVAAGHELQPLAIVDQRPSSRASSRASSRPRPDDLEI
Test: SPR, Cx43CT immobilised, peptide at 500 uM, response normalised on Mw
quantity.kind: SPR normalised on Mw at 500 uM

Required: SPR normalised on Mw at 500 uM, one value per binder below.
1. Ac-RRNYGGSAVPFYSHRRNY-NH2 [Compound 2510]
2. Ac-RRNYAVPFRRNY-NH2 [Compound 2511]
3. Ac-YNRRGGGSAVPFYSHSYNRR-NH2 [Compound 2496]

1: 28.7 (SPRrespons*100)/Mw; 2: 23.6 (SPRrespons*100)/Mw; 3: 31 (SPRrespons*100)/Mw
